I'd be grateful if you could share measured pIC50 for these entries.
pIC50: −log10 of the molar value.

Query block: Tell me its pIC50 on Avi-tagged FL MALT-1 (Homo sapiens (Human)): COc1ccc2cnn(C)c2c1NS(=O)(=O)c1cnn(-c2cc(C3(F)CC(C)C3)ccn2)c1 (stereo not shown)
Sequence (Q9UDY8 whole entry): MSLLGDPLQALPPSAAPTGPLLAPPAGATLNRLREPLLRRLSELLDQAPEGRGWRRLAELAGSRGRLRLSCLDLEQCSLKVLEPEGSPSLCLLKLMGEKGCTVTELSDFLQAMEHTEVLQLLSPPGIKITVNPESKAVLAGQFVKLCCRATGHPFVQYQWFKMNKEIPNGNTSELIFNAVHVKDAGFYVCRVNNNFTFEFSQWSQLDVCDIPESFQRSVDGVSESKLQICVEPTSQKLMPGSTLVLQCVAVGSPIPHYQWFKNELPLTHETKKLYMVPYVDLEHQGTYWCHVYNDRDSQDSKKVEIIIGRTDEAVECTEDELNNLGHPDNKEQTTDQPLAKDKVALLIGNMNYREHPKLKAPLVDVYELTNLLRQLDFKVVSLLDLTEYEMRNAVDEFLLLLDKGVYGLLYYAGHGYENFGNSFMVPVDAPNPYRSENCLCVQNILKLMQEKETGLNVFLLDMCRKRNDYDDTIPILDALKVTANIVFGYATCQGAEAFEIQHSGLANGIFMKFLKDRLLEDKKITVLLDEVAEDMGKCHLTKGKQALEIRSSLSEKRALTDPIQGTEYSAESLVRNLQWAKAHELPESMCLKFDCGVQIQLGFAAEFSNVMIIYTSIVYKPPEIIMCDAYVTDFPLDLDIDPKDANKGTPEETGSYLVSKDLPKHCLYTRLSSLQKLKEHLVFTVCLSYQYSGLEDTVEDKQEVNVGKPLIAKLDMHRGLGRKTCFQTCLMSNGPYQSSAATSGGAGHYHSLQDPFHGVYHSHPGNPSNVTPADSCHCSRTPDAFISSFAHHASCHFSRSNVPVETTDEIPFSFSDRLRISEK
Result block: 6.00 to 6.40

Query block: Tell me its pIC50 on Avi-tagged FL MALT-1 (Homo sapiens (Human)): COc1ncc2cnn(C)c2c1NS(=O)(=O)c1cnn(-c2cc(N3CC4CC4C3)ccn2)c1 (stereo not shown)
Result block: < 5.60

Query block: Tell me its pIC50 on Avi-tagged FL MALT-1 (Homo sapiens (Human)): `Cn1ncc2cccc(NS(=O)(=O)c3cnn(-c4cc(C5CCOCC5)ccn4)c3)c21`
Result block: < 5.60

Query block: Tell me its pIC50 on Avi-tagged FL MALT-1 (Homo sapiens (Human)): `COc1ccc2cnn(C)c2c1NS(=O)(=O)c1cnn(-c2cc(N3CC(OC)C3)ccn2)c1`
Result block: < 5.60

Query block: Tell me its pIC50 on Avi-tagged FL MALT-1 (Homo sapiens (Human)): `Cc1n[nH]c2cccc(NS(=O)(=O)c3cnn(-c4cc(C5(O)CCC5)ccn4)c3)c12`
Result block: < 5.60

Query block: Tell me its pIC50 on Avi-tagged FL MALT-1 (Homo sapiens (Human)): `Cn1ncc2ccc(C3CC3)c(NS(=O)(=O)c3cnn(-c4cncc(C(F)(F)F)c4)c3)c21`
Result block: ≥ 6.40

Query block: Tell me its pIC50 on Avi-tagged FL MALT-1 (Homo sapiens (Human)): `COCC(F)(COC)c1ccnc(-n2cc(S(=O)(=O)Nc3cccc4cnn(C)c34)cn2)c1`
Result block: < 5.60

----------
I'd be grateful if you could share measured pIC50 for these entries.
System: NF-kB reporter in Jurkat cells
Experimental Protocol: NF-kB reporter assay in Jurkat cells stimulated with aCD3/aCD28/PMA
Format: cell-based
Condition Summary: Homo sapiens; Jurkat cells, 1 hr compound pre-incubation, aCD3/aCD28/PMA stimulation 4 hr, One-Glo readout; read-out: NF-kB Reporter Assay IC50
pIC50: −log10 of the molar value.

Query block: Tell me its pIC50 on NF-kB reporter in Jurkat cells: COc1ncc2cnn(C)c2c1NS(=O)(=O)c1cnn(-c2cc(N3CCCCCC3)ccn2)c1 [Compound I-408]
Result block: > 6.40

Query block: Tell me its pIC50 on NF-kB reporter in Jurkat cells: [2H]C([2H])([2H])c1ccc2cnn(C)c2c1NS(=O)(=O)c1cnn(-c2cc(C(F)(F)F)ccn2)c1 [Compound I-71]
Result block: > 6.40

Query block: Tell me its pIC50 on NF-kB reporter in Jurkat cells: Cn1ncc2cccc(NS(=O)(=O)c3cnn(-c4cc(N5CC(C)(C(N)=O)C5)ccn4)c3)c21 [Compound I-458]
Result block: < 5.60

Query block: Tell me its pIC50 on NF-kB reporter in Jurkat cells: Cn1ncc2cccc(NS(=O)(=O)c3cnn(-c4cc(C(C)(C)C#N)ccn4)c3)c21 [Compound I-382]
Result block: > 6.40

Query block: Tell me its pIC50 on NF-kB reporter in Jurkat cells: [2H]c1cnc(-n2cc(S(=O)(=O)Nc3cccc4cnn(C([2H])([2H])[2H])c34)cn2)cc1C(F)(F)F [Compound I-338]
Result block: > 6.40

Query block: Tell me its pIC50 on NF-kB reporter in Jurkat cells: Cn1ncc2cccc(NS(=O)(=O)c3cnn(-c4cc(N5CC(C)(C)NC5=O)ccn4)c3)c21 [Compound I-285]
Result block: 6.00 to 6.40

----------
I'd be grateful if you could share measured IC50 for these entries.
System: NF-kB reporter in Jurkat cells
Experimental Protocol: NF-kB reporter assay in Jurkat cells stimulated with aCD3/aCD28/PMA
Format: cell-based
Condition Summary: Homo sapiens; Jurkat cells, 1 hr compound pre-incubation, aCD3/aCD28/PMA stimulation 4 hr, One-Glo readout; read-out: NF-kB Reporter Assay IC50

Query block: Please supply the value of reported IC50 for the item `CCc1ccc2cnn(C)c2c1NS(=O)(=O)c1cnn(-c2ccc(OC)cn2)c1`
Result block: 0.4 to 1 µM

Query block: Please supply the value of reported IC50 for the item `CCc1ccc2cnn(C)c2c1NS(=O)(=O)c1cnn(-c2cc(C)nc(C)c2)c1`
Result block: 0.4 to 1 µM

Query block: Please supply the value of reported IC50 for the item `COc1ccc2cnn(C)c2c1NS(=O)(=O)c1cnn(-c2cc(Cl)ccn2)c1`
Result block: < 0.4 µM

Query block: Please supply the value of reported IC50 for the item `CN1CCC[C@H](n2cc(S(=O)(=O)Nc3cccc4cnn(C)c34)cn2)C1`
Result block: > 2.5 µM

Query block: Please supply the value of reported IC50 for the item `COc1ccc2cnn(C)c2c1NS(=O)(=O)c1cnn(-c2cc(C3(OC)CC(C)(C)C3)ccn2)c1`
Result block: < 0.4 µM

Query block: Please supply the value of reported IC50 for the item `Cn1ncc2cccc(NS(=O)(=O)c3cnn(-c4cc(C5(O)CCCCC5)ccn4)c3)c21`
Result block: < 0.4 µM

Query block: Please supply the value of reported IC50 for the item `CC[C@@H](OC)c1ccnc(-n2cc(S(=O)(=O)Nc3cccc4cnn(C)c34)cn2)c1`
Result block: < 0.4 µM

Query block: Please supply the value of reported IC50 for the item `CCc1ccc2cnn(C)c2c1NS(=O)(=O)c1cnn(-c2cc(C(F)(F)F)ccn2)c1`
Result block: < 0.4 µM

Query block: Please supply the value of reported IC50 for the item `COc1ccc2cnn(C)c2c1NS(=O)(=O)c1cnn(-c2cnn3c2COCC3)c1`
Result block: 0.4 to 1 µM

Query block: Please supply the value of reported IC50 for the item `COc1ccc2cnn(C)c2c1NS(=O)(=O)c1cnn(-c2cc(N3CC(C)(C(N)=O)C3)ccn2)c1`
Result block: 1 to 2.5 µM

Query block: Please supply the value of reported IC50 for the item `Cn1ncc2cccc(NS(=O)(=O)c3cnn(-c4cc(N5CC(F)(F)C5)ccn4)c3)c21`
Result block: < 0.4 µM

Query block: Please supply the value of reported IC50 for the item `Cn1ncc2cccc(NS(=O)(=O)c3cnn([C@@H]4CCCN(CC(F)(F)F)C4)c3)c21`
Result block: 1 to 2.5 µM

Query block: Please supply the value of reported IC50 for the item `Cn1ncc2cccc(NS(=O)(=O)c3cnn(-c4cc(N5CC(C)(C)OC5=O)ccn4)c3)c21`
Result block: < 0.4 µM

Query block: Please supply the value of reported IC50 for the item `CCOc1ccc2cnn(C)c2c1NS(=O)(=O)c1cnn(-c2ccnc(C(F)(F)F)c2)c1`
Result block: 0.4 to 1 µM

Query block: Please supply the value of reported IC50 for the item `Cc1n[nH]c2cccc(NS(=O)(=O)c3cnn(-c4ccc(C5CC5)cn4)c3)c12`
Result block: < 0.4 µM

Query block: Please supply the value of reported IC50 for the item `Cn1ncc2ccc(Cl)c(NS(=O)(=O)c3cnn(-c4cc(C(F)(F)F)ccn4)c3)c21`
Result block: < 0.4 µM

Query block: Please supply the value of reported IC50 for the item `COc1ncc2cnn(C)c2c1NS(=O)(=O)c1cnn(-c2cc(N3CCCCC3)ccn2)c1`
Result block: < 0.4 µM

Query block: Please supply the value of reported IC50 for the item `Cn1ncc2cccc(NS(=O)(=O)c3cnn(-c4cc([C@]5(O)C[C@@H](C)C5)ccn4)c3)c21`
Result block: < 0.4 µM

Query block: Please supply the value of reported IC50 for the item `CCc1ccc2cnn(C)c2c1NS(=O)(=O)c1cnn(-c2ccc(C(F)(F)F)cn2)c1`
Result block: < 0.4 µM

Query block: Please supply the value of reported IC50 for the item `COc1ncc2cnn(C)c2c1NS(=O)(=O)c1cnn(-c2cc(C(C)(F)F)ccn2)c1`
Result block: < 0.4 µM

Query block: Please supply the value of reported IC50 for the item COc1ccc2cnn(C)c2c1NS(=O)(=O)c1cnn(-c2cc(C3CCO3)ccn2)c1 (centres unmarked)
Result block: < 0.4 µM

Query block: Please supply the value of reported IC50 for the item `CCc1ccc2cnn(C)c2c1NS(=O)(=O)c1cnn(-c2ccnc(N(C)C)c2)c1`
Result block: < 0.4 µM

Query block: Please supply the value of reported IC50 for the item `CCc1ccc2cnn(C)c2c1NS(=O)(=O)c1cnn(-c2ccnc(C(F)(F)F)c2)c1C`
Result block: 1 to 2.5 µM

----------
Tested on: NF-kB reporter in Jurkat cells
Experimental Protocol: NF-kB reporter assay in Jurkat cells stimulated with aCD3/aCD28/PMA
Format: cell-based
Condition Summary: Homo sapiens; Jurkat cells, 1 hr compound pre-incubation, aCD3/aCD28/PMA stimulation 4 hr, One-Glo readout; read-out: NF-kB Reporter Assay IC50
Recorded Metric: IC50

Query block: Tell me its IC50 on NF-kB reporter in Jurkat cells: `O=S(=O)(Nc1cccc2cnn(C(F)F)c12)c1cnn(-c2cc(C(F)(F)F)ccn2)c1`
Result block: > 2500 nM

Query block: Tell me its IC50 on NF-kB reporter in Jurkat cells: `COc1ccc2cnn(C)c2c1NS(=O)(=O)c1cnn(-c2cnc3n2CCOC3)c1`
Result block: > 2500 nM

Query block: Tell me its IC50 on NF-kB reporter in Jurkat cells: `Cn1ncc2cccc(NS(=O)(=O)c3cnn(-c4cc(C5(F)CCC5)ccn4)c3)c21`
Result block: < 400 nM

Query block: Tell me its IC50 on NF-kB reporter in Jurkat cells: `CO[C@@]1(c2ccnc(-n3cc(S(=O)(=O)Nc4cccc5cnn(C)c45)cn3)c2)CCOC1`
Result block: < 400 nM

Query block: Tell me its IC50 on NF-kB reporter in Jurkat cells: `COc1ccc2cnn(C)c2c1NS(=O)(=O)c1cnn(-c2cc(N3CC(C(N)=O)C3)ccn2)c1`
Result block: > 2500 nM

Query block: Tell me its IC50 on NF-kB reporter in Jurkat cells: `COc1ncc2cnn(C)c2c1NS(=O)(=O)c1cnn(-c2cc(N3CCC4(CC4)C3)ccn2)c1`
Result block: < 400 nM

Query block: Tell me its IC50 on NF-kB reporter in Jurkat cells: `Cn1ncc2cccc(NS(=O)(=O)c3cnn(-c4cc(C5(C#N)CCCC5)ccn4)c3)c21`
Result block: < 400 nM

Query block: Tell me its IC50 on NF-kB reporter in Jurkat cells: Cn1ncc2cccc(NS(=O)(=O)c3cnn(-c4cc(C5(O)CC(F)C5)ccn4)c3)c21 (stereo not shown)
Result block: < 400 nM

Query block: Tell me its IC50 on NF-kB reporter in Jurkat cells: `Cn1ncc2ccc(OC(F)(F)F)c(N(S(=O)(=O)c3cnn(-c4cc(C(F)(F)F)ccn4)c3)S(=O)(=O)c3cnn(-c4cc(C(F)(F)F)ccn4)c3)c21`
Result block: > 2500 nM

Query block: Tell me its IC50 on NF-kB reporter in Jurkat cells: `CCc1ccc2cnn(C)c2c1NS(=O)(=O)c1cnn(-c2ccnc(C3CC3)c2)c1`
Result block: < 400 nM

Query block: Tell me its IC50 on NF-kB reporter in Jurkat cells: `CC[C@@H](O)c1ccnc(-n2cc(S(=O)(=O)Nc3cccc4cnn(C)c34)cn2)c1`
Result block: < 400 nM

Query block: Tell me its IC50 on NF-kB reporter in Jurkat cells: `CCN(c1c(OC)ccc2cnn(C)c12)S(=O)(=O)c1cnn(-c2ccnc(C(F)(F)F)c2)c1`
Result block: < 400 nM

Query block: Tell me its IC50 on NF-kB reporter in Jurkat cells: `CN1CCN(c2ccnc(-n3cc(S(=O)(=O)Nc4cccc5cnn(C)c45)cn3)c2)C1=O`
Result block: < 400 nM
